test: Pharmacokinetics in healthy cats, once daily po. for 4 days; assay type: in vivo; conditions: cat, in vivo; healthy cats, once daily po. for 4 days, 0.1 and 0.3 mg/kg; read-out: half-life
result.type: Half-life

Find the recorded Half-life belonging to COc1ccc(CCN2CCC[C@H](CN3CCc4cc(OC)c(OC)cc4CC3=O)C2)cc1OC and report it.
152 to 211 min

----------
experiment: Pharmacokinetics in healthy human male subjects, once daily po. for 7 days; assay type: in vivo; details: in vivo; healthy human male subjects, once daily po. for 7 days, 5-20 mg per subject; read-out: half-life
result.type: Half-life

Find the recorded Half-life belonging to COc1ccc(CCN2CCC[C@H](CN3CCc4cc(OC)c(OC)cc4CC3=O)C2)cc1OC and report it.
10.1 to 13.9 h
